Molecular target: UniProt:P28335
Sequence (P28335 whole entry): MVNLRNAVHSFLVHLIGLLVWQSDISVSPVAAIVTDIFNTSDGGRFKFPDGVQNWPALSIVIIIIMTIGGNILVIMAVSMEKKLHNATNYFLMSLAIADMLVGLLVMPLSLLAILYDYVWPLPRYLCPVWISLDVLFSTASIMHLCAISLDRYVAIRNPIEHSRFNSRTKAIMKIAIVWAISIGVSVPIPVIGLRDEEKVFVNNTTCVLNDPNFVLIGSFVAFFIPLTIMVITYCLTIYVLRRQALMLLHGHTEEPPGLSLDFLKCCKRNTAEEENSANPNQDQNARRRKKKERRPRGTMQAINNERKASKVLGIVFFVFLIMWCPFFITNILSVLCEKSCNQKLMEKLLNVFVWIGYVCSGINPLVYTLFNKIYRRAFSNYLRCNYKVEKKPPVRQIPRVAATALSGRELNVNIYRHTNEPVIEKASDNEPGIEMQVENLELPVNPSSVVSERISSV
Test: Displacement of [3H]-mesulergine from human recombinant 5HT-2C receptor expressed in CHOK1 cell membranes after 30 mins
Set-up: species or system CHO-K1
pIC50: −log10 of the molar value.
Values of pIC50 greater than or equal to 6 map to fulfilled; values below map to not fulfilled.

OCCCNc1nc(Nc2ccc(F)cc2)c2cn[nH]c2n1
not fulfilled
C=CCNc1nc(Nc2ccc(F)cc2)c2cn[nH]c2n1
not fulfilled
COCCCNc1nc(Nc2ccc(F)cc2)c2cn[nH]c2n1
not fulfilled

Does the reported pIC50 for `COc1ccc(Nc2nc(Cc3ccccc3)nc3c2CCNCC3)cc1` fall at or above the 6 mark?
fulfilled

Record `CCN(CC)c1nc(N2CCN(C)CC2)nc2c1CCNCC2` ; criterion: pIC50 no lower than 6. Met?
not fulfilled

Assess whether reported pIC50 for CC1CC(C)CN(c2nc(Nc3ccc(F)cc3)c3cn[nH]c3n2)C1 (centres undefined) sits at 6 or higher.
not fulfilled

Does pIC50 meet or surpass 6 for `CCCNc1nc(Nc2ccccc2)c2cn[nH]c2n1` ?
not fulfilled
